// reported MIC per item
- Tested on: Staphylococcus aureus CMCC(B)26003
- assay protocol: Antibacterial MIC, serial dilution
- Format: cell-based
- experimental context: Staphylococcus aureus; S. aureus CMCC(B)26003, 24 h, 37 °C; read-out: MIC
readout: MIC (µg/mL)

molecule | unit tag | assay result
N=C(N)NN=Cc1ccc(C#Cc2ccccc2)cc1 | µg/mL | 1
N=C(N)NN=Cc1ccc(C#CC#Cc2ccccc2)cc1 | µg/mL | 0.5
N=C(N)NN=Cc1ccc(C#CC#Cc2cccc(Br)c2)cc1 | µg/mL | 2
Cc1onc(-c2ccccc2)c1C(=O)N[C@@H]1C(=O)N2[C@@H]1SC(C)(C)[C@@H]2C(=O)O [Oxacillin, reference compound] | µg/mL | 0.125
N=C(N)NN=Cc1ccc(C#Cc2cccc(Br)c2)cc1 | µg/mL | 1
N=C(N)NN=Cc1ccc(C#Cc2ccccc2Br)cc1 | µg/mL | 2
N=C(N)NN=Cc1ccc(C#Cc2ccccc2F)cc1 | µg/mL | 1
N=C(N)NN=Cc1ccc(C#Cc2ccc(Br)cc2)cc1 | µg/mL | 0.5
N=C(N)NN=Cc1ccc(C#CC#Cc2ccccc2F)cc1 | µg/mL | 0.25
N=C(N)NN=Cc1ccc(C#Cc2ccc(Cl)cc2)cc1 | µg/mL | 0.5

###

- Test system: Enterococcus faecalis CMCC 29212
- assay protocol: Antibacterial MIC, serial dilution
- Assay type: cell-based
- experimental context: Enterococcus faecalis, CMCC29212; E. faecalis CMCC 29212, 24 h, 37 °C; read-out: MIC

compound | MIC [µg/mL]
N=C(N)NN=Cc1ccc(C#Cc2ccccc2F)cc1 | 1
N=C(N)NN=Cc1ccc(C#Cc2cccc(F)c2)cc1 | 1
N=C(N)NN=Cc1ccc(C#Cc2cccc(Cl)c2)cc1 | 0.5
N=C(N)NN=Cc1ccc(C#Cc2ccc(Br)cc2)cc1 | 0.5
N=C(N)NN=Cc1ccc(C#CC#Cc2ccc(Br)cc2)cc1 | 128
N=C(N)NN=Cc1ccc(C#CC#Cc2cccc(F)c2)cc1 | 0.5
N=C(N)NN=Cc1ccc(C#CC#Cc2cccc(Br)c2)cc1 | 0.5
N=C(N)NN=Cc1ccc(C#Cc2cccc(Br)c2)cc1 | 1
N=C(N)NN=Cc1ccc(C#CC#Cc2ccc(Cl)cc2)cc1 | 128
N=C(N)NN=Cc1ccc(C#CC#Cc2ccccc2Cl)cc1 | 0.5
N=C(N)NN=Cc1ccc(C#Cc2ccccc2Br)cc1 | 1
N=C(N)NN=Cc1ccc(C#Cc2ccc(Cl)cc2)cc1 | 0.5
N=C(N)NN=Cc1ccc(C#CC#Cc2ccccc2Br)cc1 | 0.5
N=C(N)NN=Cc1ccc(C#Cc2ccc(F)cc2)cc1 | 1
N=C(N)NN=Cc1ccc(C#Cc2ccccc2Cl)cc1 | 0.5
Cc1cccc(C#CC#Cc2ccc(C=NNC(=N)N)cc2)c1 | 0.5
N=C(N)NN=Cc1ccc(C#CC#Cc2cccc(Cl)c2)cc1 | 0.5
N=C(N)NN=Cc1ccc(C#CC#Cc2ccccc2F)cc1 | 0.5
Cc1onc(-c2ccccc2)c1C(=O)N[C@@H]1C(=O)N2[C@@H]1SC(C)(C)[C@@H]2C(=O)O [Oxacillin, reference compound] | 128
COc1c(N2CCNC(C)C2)c(F)cc2c(=O)c(C(=O)O)cn(C3CC3)c12 (centres unmarked) [Gatifloxacin, reference compound] | 1

###

// reported MIC per item
- Test system: Enterococcus faecalis CMCC 29212
- assay protocol: Antibacterial MIC, serial dilution
- Format: cell-based
- experimental context: Enterococcus faecalis, CMCC29212; E. faecalis CMCC 29212, 24 h, 37 °C; read-out: MIC
readout: MIC (µg/mL)

compound | measured target | readout | assay result
CCn1cc(C(=O)O)c(=O)c2cc(F)c(N3CCNCC3)cc21 [Norfloxacin, reference compound] | Enterococcus faecalis CMCC 29212 | MIC | 1
N=C(N)NN=Cc1ccc(C#Cc2ccccc2)cc1 | Enterococcus faecalis CMCC 29212 | MIC | 1
N=C(N)NN=Cc1ccc(C#CC#Cc2ccccc2)cc1 | Enterococcus faecalis CMCC 29212 | MIC | 0.5
N=C(N)NN=Cc1ccc(C#CC#Cc2ccc(F)cc2)cc1 | Enterococcus faecalis CMCC 29212 | MIC | 128

###

- System: Pseudomonas aeruginosa CMCC 27853
- assay protocol: Antibacterial MIC, serial dilution
- Format: cell-based
- experimental context: Pseudomonas aeruginosa, CMCC27853; P. aeruginosa CMCC 27853, 24 h, 37 °C; read-out: MIC
// reported MIC per item

molecule | MIC
CCn1cc(C(=O)O)c(=O)c2cc(F)c(N3CCNCC3)cc21 [Norfloxacin, reference compound] | 2 µg/mL
N=C(N)NN=Cc1ccc(C#Cc2cccc(Br)c2)cc1 | > 128 µg/mL
N=C(N)NN=Cc1ccc(C#Cc2ccccc2Br)cc1 | > 128 µg/mL
N=C(N)NN=Cc1ccc(C#CC#Cc2ccc(Cl)cc2)cc1 | > 128 µg/mL
N=C(N)NN=Cc1ccc(C#CC#Cc2cccc(F)c2)cc1 | > 128 µg/mL
N=C(N)NN=Cc1ccc(C#Cc2ccc(Br)cc2)cc1 | > 128 µg/mL
N=C(N)NN=Cc1ccc(C#CC#Cc2ccc(Br)cc2)cc1 | > 128 µg/mL
N=C(N)NN=Cc1ccc(C#CC#Cc2ccccc2Br)cc1 | > 128 µg/mL
N=C(N)NN=Cc1ccc(C#Cc2ccccc2F)cc1 | 128 µg/mL
N=C(N)NN=Cc1ccc(C#CC#Cc2ccccc2F)cc1 | > 128 µg/mL

###

- System: Pseudomonas aeruginosa CMCC 27853
- assay protocol: Antibacterial MIC, serial dilution
- Assay type: cell-based
- experimental context: Pseudomonas aeruginosa, CMCC27853; P. aeruginosa CMCC 27853, 24 h, 37 °C; read-out: MIC

compound | MIC
N=C(N)NN=Cc1ccc(C#CC#Cc2cccc(Br)c2)cc1 [Compound 6i] | > 128 mg/L
Cc1cccc(C#CC#Cc2ccc(C=NNC(=N)N)cc2)c1 [Compound 6k] | > 128 mg/L
N=C(N)NN=Cc1ccc(C#Cc2ccccc2Cl)cc1 [Compound 3e] | > 128 mg/L
N=C(N)NN=Cc1ccc(C#CC#Cc2ccccc2)cc1 [Compound 6a] | > 128 mg/L
N=C(N)NN=Cc1ccc(C#Cc2ccccc2)cc1 [Compound 3a] | 16 mg/L
N=C(N)NN=Cc1ccc(C#CC#Cc2ccccc2Cl)cc1 [Compound 6e] | > 128 mg/L
N=C(N)NN=Cc1ccc(C#CC#Cc2ccc(F)cc2)cc1 [Compound 6d] | > 128 mg/L
COc1c(N2CCNC(C)C2)c(F)cc2c(=O)c(C(=O)O)cn(C3CC3)c12 (stereo not shown) [Gatifloxacin, reference compound] | 2 mg/L
N=C(N)NN=Cc1ccc(C#Cc2ccc(Cl)cc2)cc1 [Compound 3g] | > 128 mg/L
N=C(N)NN=Cc1ccc(C#CC#Cc2cccc(Cl)c2)cc1 [Compound 6f] | > 128 mg/L
N=C(N)NN=Cc1ccc(C#Cc2ccc(F)cc2)cc1 [Compound 3d] | 8 mg/L
N=C(N)NN=Cc1ccc(C#Cc2cccc(F)c2)cc1 [Compound 3c] | 16 mg/L
N=C(N)NN=Cc1ccc(C#Cc2cccc(Cl)c2)cc1 [Compound 3f] | > 128 mg/L

###

- Test system: Staphylococcus aureus CMCC(B)26003
- assay protocol: Antibacterial MIC, serial dilution
- Format: cell-based
- experimental context: Staphylococcus aureus; S. aureus CMCC(B)26003, 24 h, 37 °C; read-out: MIC
readout: MIC (µg/mL)

structure smiles string | assay result
Cc1cccc(C#CC#Cc2ccc(C=NNC(=N)N)cc2)c1 | 1
N=C(N)NN=Cc1ccc(C#CC#Cc2cccc(F)c2)cc1 | 128
N=C(N)NN=Cc1ccc(C#CC#Cc2ccccc2Br)cc1 | 1
N=C(N)NN=Cc1ccc(C#Cc2ccccc2Cl)cc1 | 0.5
N=C(N)NN=Cc1ccc(C#CC#Cc2ccccc2Cl)cc1 | 0.25

###

// reported MIC per item
- Tested on: Staphylococcus aureus ATCC 33591
- assay protocol: Antibacterial MIC, multidrug-resistant clinical isolate
- Assay type: cell-based
- experimental context: Staphylococcus aureus, ATCC33591; multidrug-resistant S. aureus ATCC 33591; read-out: MIC
readout: MIC

molecule | assay result
COc1c(N2CCNC(C)C2)c(F)cc2c(=O)c(C(=O)O)cn(C3CC3)c12 (stereo not shown) [Gatifloxacin, reference compound] | 0.25 µg/mL
N=C(N)NN=Cc1ccc(C#Cc2ccc(Cl)cc2)cc1 | 0.5 µg/mL
N=C(N)NN=Cc1ccc(C#CC#Cc2ccccc2)cc1 | 0.5 µg/mL
N=C(N)NN=Cc1ccc(C#Cc2ccccc2Cl)cc1 | 0.5 µg/mL
CCn1cc(C(=O)O)c(=O)c2cc(F)c(N3CCNCC3)cc21 [Norfloxacin, reference compound] | 0.25 µg/mL
COc1c(N2C[C@@H]3CCCN[C@@H]3C2)c(F)cc2c(=O)c(C(=O)O)cn(C3CC3)c12 [Moxifloxacin, reference compound] | 0.25 µg/mL
N=C(N)NN=Cc1ccc(C#Cc2ccc(F)cc2)cc1 | 1 µg/mL
Cc1onc(-c2ccccc2)c1C(=O)N[C@@H]1C(=O)N2[C@@H]1SC(C)(C)[C@@H]2C(=O)O [Oxacillin, reference compound] | 8 µg/mL
N=C(N)NN=Cc1ccc(C#CC#Cc2ccccc2Cl)cc1 | 0.5 µg/mL
N=C(N)NN=Cc1ccc(C#Cc2cccc(Br)c2)cc1 | 0.5 µg/mL
N=C(N)NN=Cc1ccc(C#Cc2cccc(F)c2)cc1 | 1 µg/mL
N=C(N)NN=Cc1ccc(C#Cc2ccc(Br)cc2)cc1 | 0.5 µg/mL
N=C(N)NN=Cc1ccc(C#CC#Cc2ccccc2F)cc1 | 1 µg/mL
